Tested on: L1210 leukemia ip in BDF1 mice, survival T/C
Test: NCI In Vivo Anticancer Drug Screen. Data for tumor model L1210 Leukemia (intraperitoneal) in B6D2F1 (BDF1) mice
Study conditions: endpoint: mean survival time; dose: 200.0 mg/kg/injection; schedule: Q01DX001 (ip); vehicle: carboxymethylcellulose (CMC); higher = longer survival
Method: The antitumor activity of compounds was measured in mice bearing transplantable tumors. Survival or tumor size were measured and the results are expressed as the measurement made in the treated group (T) divided by the measurement made in the vehicle treated control group (C). The tumor model used in this assay is L1210 Leukemia (intraperitoneal) in B6D2F1 (BDF1) mice
Toxic doses and inconclusive results are not listed.
Property name: T/C

What value of T/C has been recorded for this entry: CC1=C(C(=O)O)C(C)CC(=O)N1c1ccccc1 (stereo unspecified) 93 % of control

Here is the next compound: CCCCCCCC(=O)NN 97 % of control

Here is the next compound: CCCC(Sc1ncnc2nc[nH]c12)C(=O)O (stereo unspecified) 98 % of control

Here is the next compound: C=CCCCCCCC=C 88 % of control

Here is the next compound: CCOC(=O)OCc1ccco1 89 % of control

Here is the next compound: CCOC(=O)NS(=O)(=O)[N+](CC)(CC)CC 97 % of control

Here is the next compound: CC/C(=N/Nc1ccc([N+](=O)[O-])cc1[N+](=O)[O-])c1cccs1 97 % of control

Here is the next compound: Cn1c2c(c(=O)[nH]c1=O)OCN(Cc1ccccc1)C2 94 % of control

Here is the next compound: Oc1ccc2ccccc2c1/C=N/N=c1\[nH][nH]/c(=N\N=C\c2c(O)ccc3ccccc23)c2ccccc12 98 % of control

Here is the next compound: O=C1c2ccccc2-c2cc(Br)c([N+](=O)[O-])cc21 86 % of control

Here is the next compound: CCOC(CN1CCOCC1)c1ccccc1 (stereo unspecified) 100 % of control

Here is the next compound: C[N+](C)(C)CCCN1c2ccccc2S(=O)c2ccc(Cl)cc21 (stereo unspecified) 103 % of control

Here is the next compound: N#CC(C#N)=C1c2ccccc2C(=O)c2ccccc21 104 % of control

Here is the next compound: Nc1nc2[nH]ncc2c(=O)[nH]1 93 % of control

Here is the next compound: COc1cccc(C2N(Cc3ccccc3OC)CCCN2Cc2ccccc2OC)c1 106 % of control

Here is the next compound: CCCCCCCCC(=O)N(CC(C)C)CC(C)C 91 % of control

Here is the next compound: OC1c2ccccc2-c2c(F)c(F)c(F)c(F)c21 (stereo unspecified) 94 % of control

Here is the next compound: COc1ccc(CCNC(=O)Cc2ccc(O)cc2)cc1OC 102 % of control

Here is the next compound: Cc1ccc2c(c1)C(c1ccccc1)(c1ccccc1)OC2 89 % of control

Here is the next compound: NNc1ccccc1Cl 108 % of control

Here is the next compound: O=c1[nH]nc(-c2ccc3c(c2)Cc2ccccc2-3)c2ccccc12 94 % of control

Here is the next compound: CC1=C(c2ccccc2)C(c2ccccc2)=CC1=O 92 % of control

Here is the next compound: Cc1ccnc(NS(=O)(=O)c2ccc(N=Nc3c(N)nc(N)[nH]c3=O)cc2)n1 97 % of control

Here is the next compound: C=CC/C=C/CCC 88 % of control

Here is the next compound: COc1cc(N(CCCl)CCCl)ccc1/C=N/Nc1nncn1N 110 % of control

Here is the next compound: O=C1c2ccccc2-c2cc(Br)cc(Br)c21 98 % of control
